test_method_notes: Inhibition of Plasmodium falciparum cytochrome b-c1 complex
test_readout: IC50 (nM)
Numbers only; they are read as nM.

Input line: Look up IC50: CCCCCCCCCCOc1cc2c(O)c(C(=O)OCC)cnc2cc1OCC [DECOQUINATE]
Output line: 2

---

System: Plasmodium falciparum
test_method_notes: Antiplasmodial activity against Plasmodium falciparum by SYBR Green staining-based fluorescence assay
Assay type: functional, organism-based
test_readout: pEC50
Convention used: pEC50 is expressed as -log10 of the molar concentration.

Input line: Query the reported pEC50 for Plasmodium falciparum; item: "C[C@@]12OC(=O)[C@]1([C@@H](O)[C@@H]1C=CCCC1)NC(=O)[C@@H]2CCCl"
Output line: 7.96
